- Test system: Mycobacterium tuberculosis
- PROCEDURE TEXT: MMV: CRC and MIC90 against Mtb (replicating)
- Format: functional
// classify: if (MIC90 < 20 µM) Fulfilled else Not fulfilled

structure_smiles_string=CSc1ccccc1C(=O)Nc1nc(-c2ccccn2)cs1 label_class="Not fulfilled"
structure_smiles_string=CCCCOC(=O)c1ccc(Nc2cc(C)nc3ccc(OC)cc23)cc1 label_class="Not fulfilled"
structure_smiles_string=Cc1cc(N(C)C)nc(Nc2ccc(NC(=O)Nc3ccccc3)cc2)n1 label_class=Fulfilled
structure_smiles_string=CCn1nc(-c2ccc(C(=O)OC)cc2)nc2c(=O)n(C)c(=O)nc1-2 label_class="Not fulfilled"
structure_smiles_string=Cc1cc(Nc2cccc(F)c2)nc(NCc2ccccc2)n1 label_class=Fulfilled
structure_smiles_string=Nc1ccc(-c2nc3cc(Cc4ccc5[nH]c(-c6ccc(N)cc6)nc5c4)ccc3[nH]2)cc1 label_class=Fulfilled
